Every entry's value here was drawn from ChEMBL document CHEMBL4699547.

test.protocol: Permeability of the compound at 25 ug/ml after 18 hrs by PAMPA-BBB assay
Kindly apply the following: True if Papp at 18 h, 25 ug/ml is less than 6 ×10⁻⁶ cm/s, False in every other case.

{"columns": ["molecule", "category.label"],
 "data": [
  ["Clc1ccc(CNC2CCN(Cc3ccccc3)C2)cc1 (stereo unspecified)", "True"],
  ["FC(F)(F)c1ccc(CNC2CCN(Cc3ccccc3)C2)cc1 (stereo unspecified)", "False"],
  ["Fc1ccc(CNC2CCN(Cc3ccccc3)C2)cc1 (stereo unspecified)", "True"],
  ["Brc1ccc(CNC2CCN(Cc3ccccc3)C2)cc1 (stereo unspecified)", "True"],
  ["FC(F)(F)Oc1ccc(CNC2CCN(Cc3ccccc3)C2)cc1 (stereo unspecified)", "False"],
  ["Fc1ccc(CNC2CCN(Cc3ccccc3)C2)c(F)c1 (stereo unspecified)", "True"]
]}
